Assay: protease stability score; higher = more stable; yeast display proteolysis, trypsin and chymotrypsin;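 also: log10 excess protease needed over predicted unfolded state with 0 meaning unfolded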

{"Sequence code": "DERQLDLLRQFLHAVQHGDEDRLKELADPNAKFTVGDKTIHGMNTFARTVKRRRDQARFQYNVKSMEADGDKMEVRIQLHVDVNGRPINVEFTARAHVDGDKLKSLELRIPEEVLKKQES", "protease stability score": 0.037}
{"Sequence code": "DHEDRELAKEWEKALHSGDRDQVHELMDPNASVRIGDKVFTGREEVSKHLKKIKDEMRIHIHSVHLEVQNGEVDNKNDLVADVNGVPVRVTVVVRITAQNGKMKELDMRFDPRQKEQMDR", "protease stability score": 0.093}
{"Sequence code": "DENEMVQLARKLARVLETNDSDKMREMIPPDASIEIGDRRLHGRESVEHLMKDMHKRIDHLTVDSVNVDNGRVHISARAKHNGRTRRVQFYALIHNGRIHVISFRTK", "protease stability score": 1.34}

====

Test: protease stability score; higher = more stable; yeast display proteolysis, trypsin and chymotrypsin;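 also: log10 excess protease needed over predicted unfolded state with 0 meaning unfolded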
Entry flag: Fulfilled if protease stability score reaches 0.02; Not fulfilled if it does not.

{"Sequence code": "DESELEQLKRDWEHNDFDQLVRNMDKDVRLRIGNKQWHGHEQVQNFNRKMQEQIDHQHIRHIETRGNKIRVTYEIDINGQTMVVNAEAYIDNGRLKSMHVKFTSEEHRKVFEKAVD", "Group label": "Fulfilled"}
{"Sequence code": "DERDEKRLNETAHRLVKTGDPDQWARLADKDVHVRVGDKKWEGREQLRDLLSRIVKNVDTHQVDTVTAKNGRITIRMVLNINGRNLTIWVTMVIHNGKIKEVEVRVRSEKERKKLES", "Group label": "Fulfilled"}
{"Sequence code": "DRHDMHKLEEIWKAIQTGDKDRVKELADPNAEFNVGDKTYHGMDQYITDLKKKRDQMRVHLELQSLDVKNGRARAVAVLRNEHNGTPDQRKFKVNATFRNGRLQHLKLQELS", "Group label": "Fulfilled"}
{"Sequence code": "DEEINTIAEEFMKAFQHNNPDKMRNLADENAQFRIGDDKIHGMETYAKEVKKENREQRVEFQIKDLKVQGNTVDMDVSFEVERNGQPHRFEVKLHFNFHNGKLKTLQWNTDG", "Group label": "Not fulfilled"}
{"Sequence code": "DHTVLEKAATALKQGDTDKMNKLADENVKMKVGDKEFHGRQQVNTALKRIKEQVDHRSIRSIENRGNRVTIDANVVVNGKHVDVNFILVVHNGRLKMFQIRVTDPQVHRRLSEIMS", "Group label": "Fulfilled"}
{"Sequence code": "DEETHANEFLKTREKALTSNDETELRRLVPPDVRFQVGDKQIHGREEWARKLKDDRTRVDHVTVRVVSITVRPNHIKVNLQEEVVVNGTRSRDRYEAHIVNENGHMQMHSFRQQ", "Group label": "Not fulfilled"}
{"Sequence code": "TEEDVLKVLETLMKAFFDGNPKEVKEMGKEDVKFQVGDQEVRGVDQMTKRVKEYRDQGIEFHLKRYKVEGDQVTAEAEVVMGDKKARVTAHYKADDGRVDETRVEMSDEAKKLFKHG", "Group label": "Fulfilled"}
{"Sequence code": "DEQATEVIERFLTALQRNDPHELKKQLDEDVRMNVGDKTLHGRDSFEKTWHEKLRTQRIELKDYRIEVQPGRVKAHVHYVVEHNGRPRTKRHTFSAEVHNGHVKHFHQQDEQ", "Group label": "Not fulfilled"}
{"Sequence code": "DEDKQLHELFERLVEAIRNGDPKKYQDNADENAKIRVGDKEYTGREQLEKLVEDIRKDVDHLEVDFKRVKVEGDKATAIVKVRANFNGKNDDTMYQYQAKIHGDKIHVVNVQQS", "Group label": "Fulfilled"}
{"Sequence code": "DEEVLHLADRWWEAVDRGNERQLKDNADPNVKVRVGDKTIRGRDQMAKEVRHRREEQRVNYHHFRQDVSGDKANVTVHYTREHNGKPETNVIEVVFQAHNGKIVSITVRHDG", "Group label": "Not fulfilled"}
{"Sequence code": "DEEFAKTVVQMFRNWVHGDPSDMTRMLDENAHVVIGDTTLRGRDDVSRYVNELHDHMRFHVDRLSEENRPGRAVVKAQNNNVHNGEPTTNRAVVEVNVKNGKAQDIQYNSDK", "Group label": "Not fulfilled"}
{"Sequence code": "DKEDVKKRAEELAEVLQTGDPRKMRDLADKDARLSIGDKEYHGREEISKWVDHMRRDVDHFKLDDVQASGNKMRLTFVLQHNGRRSKFDLDVKYSNGRAKELRFDRK", "Group label": "Fulfilled"}
{"Sequence code": "DEELKKWFHHWVRAMERGDEQELRNQADPNAKFKIGDKTYHGMDEFARQVVQELRHLRVHIRFKRVRNEPGRLSVDATVVREHNGKPDSYRQKASATYHNGKLTNMTINKDK", "Group label": "Fulfilled"}
{"Sequence code": "DEEVLDDVVKVMHQNDFSRLKELFDKNATIEVGDKRYHGREEAHKLMDIIKKKVDHVRIDKVHKSGNKVRIDAILEYNGNHMKVVFVIKLHNGQAKNIHIEFTSENLQNKFKTLVD", "Group label": "Fulfilled"}
{"Sequence code": "DEKKIYEVLHKAVQMYVSGNDEEVRKLLKKDAEIEVADHKYRGVDEVVKVVDQFRKYGVELQIDDAKFDGNKVNAELTLHAGGETWKFTVTAEADGGKVDKVTFHVTEEVKKRIQKG", "Group label": "Not fulfilled"}
{"Sequence code": "DEEDQRTIAKEVVKVMETGDEDRMRELVDEDVKVQYGDKTVHGREQAQRAMKDLRRRADHITMDSVTVHNGEITIKAQLKYNGQNQRVVVQVRVHNGKIKEFRFREQ", "Group label": "Fulfilled"}
{"Sequence code": "DEQRYRELMETAFHLVISGDEDTLDQIGKPNMEYHYVDRTLHGKDVLRVLVKIVKRVGAEARVEEAEVNGDTARAKFQYRKGDNTVQTDAEVKYEGDQIKKARVRLNDEVRKVLKDG", "Group label": "Fulfilled"}
{"Sequence code": "DEDAVRNASTMVEAERRGDENTIQKMMDKHATVKYGDTEVHGREDAARQIRKTHREIRIQVDHYTVEAHNGRVRVEIRVVVNVNGTPYEYHYDYYAEVHNGKFKHIEINVDPDLEDKLKK", "Group label": "Not fulfilled"}
{"Sequence code": "DDHDRLRKFFETLLKNYQHNNEEHATKMADKDARFDVGDKTVNGNKQNAKEMAERVRESDHYHAKIQSYRVEGDKAHFQFVASVVHNGRERHFKVQMELKLHNGSLKIVRLRNS", "Group label": "Fulfilled"}
{"Sequence code": "DEENRRNFERLIEAIRTNNPSDVEQLVDPNVRFQVGNEVYNGREQFSKDVERLNRQINITIHVRRLHVHGEKVVVDFTYQQEVNGRPNSHRVKWDATLENGKIKSARNTFDEEFEKELTK", "Group label": "Not fulfilled"}
{"Sequence code": "DEDSEATEVAKTMHKNMKEGDPDKFMDQFDKDVRVQVGDKVYHGRDNALKWVREMLKRVDHVNFQVKRVRRQGDSVVLHLEVTLNQNGKHDKTTFVIHFTKQGDKFRADHLREQ", "Group label": "Fulfilled"}
{"Sequence code": "DEEEDNELAKRAAKAMSTNDEDQVENLVDKDVRLEVGDKTYTGDEQVRSAIQEFRRRADHVKVNKLKVEDGQANLRFTVNWNGVELDMVIHVKATNGKIKTVTIKVRDPEQERRFKS", "Group label": "Fulfilled"}
